From: patent US8372967B2

Assignment: determine reported % Inhibition for the given substances.
- System: PCSK9 mRNA
- Protocol Notes: Dose-dependent antisense inhibition of PCSK9 in Hep3B cells, EC50 (Table 76)
- Format: cell-based, human
- Applied Conditions: 40 nM
Strand notation (5' to 3'): a small letter for the sugar, then the base; units joined by * are phosphorothioate-linked, units joined directly phosphodiester-linked; [ ] holds rarer units or linkages, { } end groups; capitals alone tell only the bases. e = 2'-O-(2-methoxyethyl) (MOE); [5mC] = 5-methylcytosine; d = 2'-deoxy (DNA)
Numbers only, in %.

400353 (antisense eA*e[5mC]*dA*d[5mC]*d[5mC]*d[5mC]*dT*d[5mC]*dA*d[5mC]*d[5mC]*d[5mC]*e[5mC]*e[5mC]) [compound 400353] : 43

For each listed entry, give its % Inhibition.
1. 400352 (antisense e[5mC]*eA*d[5mC]*d[5mC]*d[5mC]*dT*d[5mC]*dA*d[5mC]*d[5mC]*d[5mC]*d[5mC]*e[5mC]*eA) [compound 400352]
2. 400331 (antisense eG*e[5mC]*d[5mC]*dA*d[5mC]*dG*dT*dG*dG*dG*d[5mC]*dA*eG*e[5mC]) [compound 400331]
3. 400308 (antisense e[5mC]*e[5mC]*dG*dG*d[5mC]*d[5mC]*dG*d[5mC]*dT*dG*dA*d[5mC]*e[5mC]*eA) [compound 400308]
4. 400307 (antisense e[5mC]*eG*dG*d[5mC]*d[5mC]*dG*d[5mC]*dT*dG*dA*d[5mC]*d[5mC]*eA*e[5mC]) [compound 400307]
5. 400327 (antisense eG*eT*d[5mC]*d[5mC]*d[5mC]*d[5mC]*dA*dA*dA*dG*dT*d[5mC]*e[5mC]*e[5mC]) [compound 400327]
6. 400309 (antisense e[5mC]*e[5mC]*d[5mC]*dG*dG*d[5mC]*d[5mC]*dG*d[5mC]*dT*dG*dA*e[5mC]*e[5mC]) [compound 400309]
7. 400330 (antisense e[5mC]*e[5mC]*dA*d[5mC]*dG*dT*dG*dG*dG*d[5mC]*dA*dG*e[5mC]*eA) [compound 400330]

1: 44; 2: 63; 3: 40; 4: 56; 5: 49; 6: 12; 7: 69
